Entries with their measured log10 of IC50, system GSK3α (Homo sapiens, UniProt P49840):
assay.metric: log10 of IC50 (log10 of the value in nM)

* CC(Nc1nccc(C(=O)Nc2cnccc2OCC(F)(F)F)n1)C12CC3CC(CC(C3)C1)C2 (stereo not drawn) | 1.86
* CCCC1(c2cc(Cl)ncc2NC(=O)c2ccnc(NC3CC3)n2)OCCO1 | 0.23
* O=C(Nc1cnc(F)cc1N1CCC(F)(F)CC1)c1ccnc(Nc2ccc(OC(F)F)cc2)n1 | 0.20
* CC(C)(C)CNc1nccc(C(=O)Nc2cnc(F)cc2N2CCOCC2)n1 | -0.31
* Cc1cc(Nc2nccc(C(=O)Nc3cnccc3-c3ccccc3)n2)sn1 | -0.15
* N#Cc1ccc(Nc2nccc(C(=O)Nc3cnc(F)cc3N3CCC(F)(F)CC3)n2)cc1 | -0.55
* O=C(Nc1cnccc1-c1ccc(F)cc1)c1ccnc(Nc2ccc(F)cc2)n1 | -0.34
* O=C(Nc1cnccc1-c1ccccc1)c1ccnc(Nc2ccc(F)cc2)n1 | -0.72
* Cc1ccc(Nc2nccc(C(=O)Nc3cncc(-c4ccccc4F)c3)n2)cn1 | 0.11
* N#Cc1ccc(Nc2nccc(C(=O)Nc3cnccc3-c3ccc(F)cc3)n2)cc1 | -0.54
* N#Cc1ccc(Nc2nccc(C(=O)Nc3cnccc3OCC(F)(F)F)n2)cn1 | -1.05
* O=C(Nc1cnccc1-c1ccccc1)c1ccnc(Nc2c(F)cc(Cl)cc2F)n1 | 0.26
* O=C(Nc1cnccc1OCC(F)(F)F)c1ccnc(Nc2ccc(F)nc2)n1 | -0.96
* O=C(Nc1cnccc1OCC(F)(F)F)c1ccnc(NCc2ccc(C(F)(F)F)cc2)n1 | 0.73
* O=C(Nc1cnccc1-c1ccccc1)c1ccnc(Nc2ccc(C(F)(F)F)cc2F)n1 | 0.34
* O=C(Nc1cncnc1OCC(F)(F)F)c1ccnc(NCC2CC2)n1 | 0.68
* CCNc1nccc(C(=O)Nc2cnccc2OCC(F)(F)F)n1 | 0.65
* O=C(Nc1cncnc1OCC(F)(F)F)c1ccnc(Nc2ccc(Cl)cc2F)n1 | 0.62

====

# measured.target: GSK3β (Homo sapiens)
# Sequence (P49841 whole entry, species assumed): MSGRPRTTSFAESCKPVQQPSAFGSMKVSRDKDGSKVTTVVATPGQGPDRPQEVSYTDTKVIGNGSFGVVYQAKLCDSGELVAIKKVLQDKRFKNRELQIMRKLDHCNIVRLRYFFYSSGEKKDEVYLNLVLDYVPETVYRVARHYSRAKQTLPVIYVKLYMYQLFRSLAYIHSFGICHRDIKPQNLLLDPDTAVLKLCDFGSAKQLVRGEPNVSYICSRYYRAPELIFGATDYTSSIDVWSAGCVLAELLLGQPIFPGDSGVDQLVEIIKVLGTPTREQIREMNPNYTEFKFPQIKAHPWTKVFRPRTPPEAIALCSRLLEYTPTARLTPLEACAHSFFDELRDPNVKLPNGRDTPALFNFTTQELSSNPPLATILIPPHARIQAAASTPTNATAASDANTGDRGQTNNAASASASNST
# method.summary: GSK3β kinase assay (Caliper LabChip3000 mobility shift, fluoresceinated peptide substrate)
# Format: biochemical
# conditions: 250 pM enzyme, 20 uM ATP, 1.5 uM peptide, 20 hours room temperature; first value of cell GSK3β/GSK3α; read-out: GSK3β (nM), IC50
assay.metric: IC50 (nM)

- O=C(Nc1cnccc1-c1ccc(F)cc1)c1ccnc(Nc2ccc(OC(F)F)cc2)n1: 0.48
- O=C(Nc1cnc(F)cc1N1CCC(F)(F)CC1)c1ccnc(NCC2CC2)n1: 0.7
- O=C(Nc1cnccc1OCC(F)(F)F)c1ccnc(NC2CCCOC2)n1 (stereo not drawn): 0.51
- COc1cccc(C2CC2CNc2nccc(C(=O)Nc3cncnc3)n2)c1 (stereo not drawn): 40
- O=C(Nc1cncnc1)c1ccnc(NCC2CC2c2cccc(F)c2)n1 (stereo not drawn): 53
- O=C(Nc1cnccc1-c1ccccc1)c1ccnc(Nc2ccc(-n3ccnc3)cc2)n1: 54
- CN1CCC(Nc2nccc(C(=O)Nc3cnccc3-c3ccccc3F)n2)CC1: 32
- CC(C)(C)CNc1nccc(C(=O)Nc2cncnc2OCC(F)(F)F)n1: 1.43
- O=C(Nc1cncnc1OCC(F)(F)F)c1ccnc(Nc2ccc(OC(F)(F)F)cc2)n1: 0.56
- Cn1ccc(Nc2nccc(C(=O)Nc3cnccc3-c3ccccc3)n2)n1: 46
- CNc1nccc(C(=O)Nc2cnccc2OCC(F)(F)F)n1: 3.6
- Cc1cc(Nc2nccc(C(=O)Nc3cnccc3-c3ccccc3)n2)c(C)nc1OC(F)F: 1.6
- O=C(Nc1cncnc1NCC1CC1)c1ccnc(Nc2ccccc2)n1: 160
- O=C(Nc1cncnc1OCC(F)(F)F)c1ccnc(Nc2ccc(C(F)(F)F)cc2)n1: 0.73
- CCNc1nccc(C(=O)Nc2cnccc2OCC(F)(F)F)n1: 0.92
- CCOc1ccc(Nc2nccc(C(=O)Nc3cnccc3-c3ccccc3)n2)cc1: 16
- O=C(Nc1cncnc1N1CCOCC1)c1ccnc(NCC2CCOCC2)n1: 74
- CCCC1(c2cc(Cl)ncc2NC(=O)c2ccnc(NC3CCOCC3)n2)OCCO1: 0.43
